This collection of values is drawn from patent US8445431.

study-target: recombinant isoform of human Angiotensin Converting Enzyme (rhACE) corresponding to the ectodomain somatic ACE (human) (UniProt P12821)
Sequence (P12821 30-1256): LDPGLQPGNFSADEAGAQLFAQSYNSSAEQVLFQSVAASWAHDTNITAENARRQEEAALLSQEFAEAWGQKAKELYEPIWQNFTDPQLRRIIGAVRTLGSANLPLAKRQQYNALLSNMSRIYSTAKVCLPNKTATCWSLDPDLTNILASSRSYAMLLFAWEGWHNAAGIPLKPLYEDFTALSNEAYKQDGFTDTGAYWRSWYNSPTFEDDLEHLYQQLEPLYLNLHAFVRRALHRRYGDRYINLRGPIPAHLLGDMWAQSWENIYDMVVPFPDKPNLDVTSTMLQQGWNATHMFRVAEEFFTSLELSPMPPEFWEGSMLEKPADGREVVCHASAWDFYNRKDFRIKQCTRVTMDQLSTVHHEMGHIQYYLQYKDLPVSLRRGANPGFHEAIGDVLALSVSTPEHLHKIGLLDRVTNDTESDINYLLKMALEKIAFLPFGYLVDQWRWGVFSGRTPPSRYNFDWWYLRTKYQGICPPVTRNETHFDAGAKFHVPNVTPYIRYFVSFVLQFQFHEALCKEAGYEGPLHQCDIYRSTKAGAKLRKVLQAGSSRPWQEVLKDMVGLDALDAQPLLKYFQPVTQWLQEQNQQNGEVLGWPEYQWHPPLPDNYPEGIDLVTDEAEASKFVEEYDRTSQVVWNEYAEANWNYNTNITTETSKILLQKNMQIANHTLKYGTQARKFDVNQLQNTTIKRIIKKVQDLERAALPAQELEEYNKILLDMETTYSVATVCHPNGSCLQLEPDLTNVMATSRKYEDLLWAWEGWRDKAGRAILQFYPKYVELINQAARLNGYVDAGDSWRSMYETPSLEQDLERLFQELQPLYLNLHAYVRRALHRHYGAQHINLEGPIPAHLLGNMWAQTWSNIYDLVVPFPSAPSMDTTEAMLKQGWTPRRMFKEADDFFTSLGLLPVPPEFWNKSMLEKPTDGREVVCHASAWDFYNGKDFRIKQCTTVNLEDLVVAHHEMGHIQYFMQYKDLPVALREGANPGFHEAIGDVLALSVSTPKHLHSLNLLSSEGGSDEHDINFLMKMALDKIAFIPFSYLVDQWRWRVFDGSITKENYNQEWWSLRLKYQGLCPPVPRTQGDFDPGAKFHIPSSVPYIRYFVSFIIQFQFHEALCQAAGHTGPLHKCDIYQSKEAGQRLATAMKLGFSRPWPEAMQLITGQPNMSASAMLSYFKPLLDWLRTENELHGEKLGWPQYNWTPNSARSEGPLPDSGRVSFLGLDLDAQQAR
assay-summary: Enzyme inhibition of rhACE with fluorogenic substrate, Dixon plot and KI=IC50/(1+[S]/Km); 45 min pre-incubation, hydrolytic conditions
No end group written: not given here.
outcome-measure: pKi
In textbook form, pKi equals minus log to base ten of the concentration in mol/L.

Lab note: KGHK (also: Cu(II) complex bound by ATCUN motif (free N-term, two peptide N, His3)) [[KGHK-Cu]+ copper(II) complex of KGHK] gave pKi of 5.40
